Can you tell me Neutralization IC50, H3-Perth09 for the items I'm about to list?
Molecular target: HA of ca A/Perth/16/09 (H3N2) virus (influenza A virus)
Assay: cell-based or functional assay
One number for each entry, in µg/mL.

Examples from the recorded data:
Antibody 3 (antibody, V domains shown) VH: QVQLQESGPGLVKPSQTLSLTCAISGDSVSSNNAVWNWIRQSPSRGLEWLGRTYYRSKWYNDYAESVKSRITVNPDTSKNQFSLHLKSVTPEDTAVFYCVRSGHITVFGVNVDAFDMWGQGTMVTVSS VL: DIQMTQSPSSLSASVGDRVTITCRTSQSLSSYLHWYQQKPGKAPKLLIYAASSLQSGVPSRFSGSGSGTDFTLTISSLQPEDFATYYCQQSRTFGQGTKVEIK | 1.49
Antibody 5 (antibody, V domains shown) VH: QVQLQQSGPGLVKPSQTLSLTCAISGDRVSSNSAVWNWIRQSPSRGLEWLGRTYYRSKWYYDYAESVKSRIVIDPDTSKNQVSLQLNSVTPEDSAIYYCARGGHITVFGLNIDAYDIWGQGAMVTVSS VL: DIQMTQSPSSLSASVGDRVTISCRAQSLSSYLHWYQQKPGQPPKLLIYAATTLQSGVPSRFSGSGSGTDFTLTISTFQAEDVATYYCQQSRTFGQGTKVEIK | 2.22

For Antibody 6 (antibody, V domains shown) VH: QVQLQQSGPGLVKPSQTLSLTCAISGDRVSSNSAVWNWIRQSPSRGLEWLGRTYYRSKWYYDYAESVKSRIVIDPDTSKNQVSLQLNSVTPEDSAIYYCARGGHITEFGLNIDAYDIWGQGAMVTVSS VL: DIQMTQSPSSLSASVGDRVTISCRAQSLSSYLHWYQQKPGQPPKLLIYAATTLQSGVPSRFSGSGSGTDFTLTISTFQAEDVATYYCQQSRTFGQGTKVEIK , what is its reported Neutralization IC50, H3-Perth09?
5.03
